- measurement_description: solvent given as SMILES
- condition: in CCOCC
Each entry below carries its reported absorption maximum.
value_kind: absorption maximum (nm)

>>> numeric_result("COc1ccc(N(c2ccc(OC)cc2)c2ccc(-c3ccc4c(c3)C(=O)c3ccccc3C4=O)cc2)cc1")
472
>>> numeric_result("O=S(=O)(c1ccc(-c2ccc(-c3nc4c5ccccc5c5ccccc5c4n3-c3ccccc3)cc2)cc1)c1ccc(-c2ccc(-c3nc4c5ccccc5c5ccccc5c4n3-c3ccccc3)cc2)cc1")
368
>>> numeric_result("CCCCCCCCC1(CCCCCCCC)c2cc(-c3ccc(C(F)(F)F)cc3)ccc2-c2ccc(N(c3ccc(-n4c5ccccc5c5ccccc54)cc3)c3ccc4c(c3)C(CCCCCCCC)(CCCCCCCC)c3cc(-c5ccc(C(F)(F)F)cc5)ccc3-4)cc21")
374
